Tested on: CCRIS mutagenicity, Ames/micronucleus/aberration tests
Experiment: CCRIS mutagenicity studies
Conditions: Test System: AMES SALMONELLA TYPHIMURIUM; Strain/Indicator: TA100; Metabolic Activation: RAT, LIVER, S-9, PHENOBARBITAL AND 5,6-BENZOFLAVONE; Method: PREINCUBATION
Active and inactive are the calls of the source. How the calls were made is not given here.
Respond with a class label; see active, inactive

[
  {
    "COMPOUND": "c1ccc2c(c1)ccc1cccnc12",
    "ASSIGNED CLASS": "inactive"
  },
  {
    "COMPOUND": "CC(C)Br",
    "ASSIGNED CLASS": "active"
  },
  {
    "COMPOUND": "O=C1C(Cl)=C(Cl)C(=O)c2ccccc21",
    "ASSIGNED CLASS": "active"
  },
  {
    "COMPOUND": "O=C1OC(O)C(C(Cl)Cl)=C1Cl (stereo not given)",
    "ASSIGNED CLASS": "inactive"
  },
  {
    "COMPOUND": "O=C(O)C(Br)Br",
    "ASSIGNED CLASS": "active"
  }
]

Turning to the following compound.
Fill in: this test's call for O=C1C=Cc2ccccc2C1=O is ___ active

* * *

Test system: CCRIS mutagenicity, Ames/micronucleus/aberration tests
Assay: CCRIS mutagenicity studies
Conditions: Test System: AMES SALMONELLA TYPHIMURIUM; Strain/Indicator: TA1537; Metabolic Activation: S-9; Method: STANDARD PLATE
Active and inactive are the calls of the source. How the calls were made is not given here.
Respond with a class label; see true (active), false (inactive)

[
  {
    "COMPOUND": "O=[N+]([O-])c1ccc2nscc2c1",
    "ASSIGNED CLASS": "true"
  },
  {
    "COMPOUND": "O=C(NC(Cc1cc(=O)[nH]c2ccccc12)C(=O)O)c1ccc(Cl)cc1 (stereo not drawn)",
    "ASSIGNED CLASS": "false"
  },
  {
    "COMPOUND": "CNc1ncn(C)c1C(=O)N(C)N=O",
    "ASSIGNED CLASS": "false"
  },
  {
    "COMPOUND": "O=P1(N(CCCl)CCCl)NCCCO1 (stereo not drawn)",
    "ASSIGNED CLASS": "false"
  },
  {
    "COMPOUND": "CN(C(=O)CCl)c1snc2ccccc12",
    "ASSIGNED CLASS": "false"
  }
]

Fill in: this test's call for O=[N+]([O-])c1cccc2nscc12 is ___ false

Fill in: this test's call for CNC(=O)c1c(N(C)N=O)ncn1C is ___ false

Fill in: this test's call for Cc1c(-c2ccccc2)oc2c(C(=O)OCCN3CCCCC3)cccc2c1=O is ___ false

* * *

Tested on: CCRIS mutagenicity, Ames/micronucleus/aberration tests
Assay: CCRIS mutagenicity studies
Details: Test System: CHINESE HAMSTER V-79; Strain/Indicator: V-79/6-THIOGUANINE; Metabolic Activation: NONE
Calls of active or inactive are those of the source. The rule behind the calls is not given here.
Respond with a class label; see true for active, false for inactive

A selection of reference data follows.
[
  {
    "COMPOUND": "F",
    "ASSIGNED CLASS": "false"
  },
  {
    "COMPOUND": "O=C(N[C@H](CO)[C@H](O)c1ccc([N+](=O)[O-])cc1)C(Cl)Cl",
    "ASSIGNED CLASS": "true"
  },
  {
    "COMPOUND": "COc1c(O)c2c(c3cc(C(=O)N4CCc5c4c(O)c(OC)c4[nH]c(C(=O)N6C[C@H]7C[C@@]78C6=CC(=O)c6[nH]cc(C)c68)cc54)[nH]c13)CCN2C(N)=O",
    "ASSIGNED CLASS": "true"
  }
]

Fill in: this test's call for O=[N+]([O-])c1ccc(N=Nc2ccc(N(CCO)CCO)cc2)c([N+](=O)[O-])c1 is ___ false

Fill in: this test's call for COCc1ccc([N+]#N)cc1 is ___ true

Fill in: this test's call for O=C(N/N=C/c1ccc([N+](=O)[O-])o1)c1ccc(O)cc1 is ___ false

Fill in: this test's call for C=O is ___ true

Fill in: this test's call for OC1(c2ccc(Cl)cc2)c2ccccc2C2=NCCN21 (stereo not given) is ___ true

Fill in: this test's call for Oc1ccc(-c2ccc(O)cc2)cc1 is ___ false

Fill in: this test's call for Oc1ccccc1 is ___ false

* * *

Tested on: CCRIS mutagenicity, Ames/micronucleus/aberration tests
Experiment: CCRIS mutagenicity studies
Conditions: Test System: AMES SALMONELLA TYPHIMURIUM; Strain/Indicator: TA1535; Metabolic Activation: RAT, LIVER, S-9, AROCLOR 1254 (10%); Method: PREINCUBATION
Calls of active or inactive are those of the source. How the calls were made is not given here.
Respond with a class label; see active, inactive

A selection of reference data follows.
[
  {
    "MOLECULE": "Cc1cc(O)c(C(C)(C)C)cc1Sc1cc(C(C)(C)C)c(O)cc1C",
    "ASSIGNED CLASS": "inactive"
  },
  {
    "MOLECULE": "B#B",
    "ASSIGNED CLASS": "inactive"
  },
  {
    "MOLECULE": "CCCCCCCCOP(=O)(OCCCCCCCC)OCCCCCCCC",
    "ASSIGNED CLASS": "inactive"
  },
  {
    "MOLECULE": "O=P(OCCCl)(OCCCl)OCCCl",
    "ASSIGNED CLASS": "inactive"
  }
]

Fill in: this test's call for O=[N+]([O-])c1cccc(O)c1 is ___ inactive

Fill in: this test's call for O=[N+]([O-])c1ccc(NCCO)c(OCCO)c1 is ___ inactive

Fill in: this test's call for CC(C)COC(=O)c1ccccc1N is ___ inactive

Fill in: this test's call for CCCCCCCCCCCCS is ___ inactive

Fill in: this test's call for Cc1cccc(N)c1C is ___ inactive

Fill in: this test's call for CCC(C)c1ccccc1O (stereo unspecified) is ___ inactive

Fill in: this test's call for COc1ccc(C(=O)/C(Br)=C\C(=O)O)cc1 is ___ active

Fill in: this test's call for ClC(Br)Br is ___ inactive

Fill in: this test's call for C=C(C)C(=O)OCCCCCCCCCC is ___ inactive

Fill in: this test's call for CCN(CC)c1cccc(O)c1 is ___ inactive

Fill in: this test's call for CCCC(C)(COC(N)=O)COC(=O)NC(C)C (stereo unspecified) is ___ inactive

Fill in: this test's call for Oc1cc(Cl)c(Cl)c(Cl)c1 is ___ inactive

* * *

Tested on: CCRIS mutagenicity, Ames/micronucleus/aberration tests
Experiment: CCRIS mutagenicity studies
Settings: Test System: AMES SALMONELLA TYPHIMURIUM; Strain/Indicator: TA100; Metabolic Activation: RAT, LIVER, S-9, PHENOBARBITAL AND BETA-NAPHTHOFLAVONE; Method: PREINCUBATION
The source made the active and inactive calls. No rule for the calls is given here.
Respond with a class label; see true (1) = active, false (0) = inactive

Fill in: this test's call for COc1cc(NC(C)CCCN)c2ncccc2c1 (centres undefined) is ___ false (0)

* * *

Test system: CCRIS mutagenicity, Ames/micronucleus/aberration tests
Test: CCRIS mutagenicity studies
Details: Test System: AMES SALMONELLA TYPHIMURIUM; Strain/Indicator: TA98; Metabolic Activation: NONE; Method: STANDARD PLATE
Active and inactive are the calls of the source. The rule behind the calls is not given here.
ENDPOINT: mutagenic call

The examples below pair each entry with its known result.
[
  {
    "COMPOUND": "Clc1cccc(Cl)n1",
    "mutagenic call": "inactive; negative"
  },
  {
    "COMPOUND": "O=C(NC(Cc1cc(=O)[nH]c2ccccc12)C(=O)O)c1ccc(Cl)cc1 (configuration not stated)",
    "mutagenic call": "inactive; negative"
  },
  {
    "COMPOUND": "C[C@]12CC[C@H](OC(=O)COc3ccc(N(CCCl)CCCl)cc3)C[C@@H]1CC[C@@H]1[C@@H]2CC[C@]2(C)NC(=O)CC[C@@H]12",
    "mutagenic call": "inactive; negative"
  },
  {
    "COMPOUND": "ClCCCCl",
    "mutagenic call": "inactive; negative"
  },
  {
    "COMPOUND": "Cn1cnc2c1c(=O)[nH]c(=O)n2C",
    "mutagenic call": "inactive; negative"
  }
]

Shift focus to the following entry.
Value of mutagenic call reported for the compound [N-]=[N+]=NC[C@H]1O[C@H](O)[C@H](O)[C@@H](O)[C@@H]1O is inactive; negative
